- EXPERIMENTAL SYSTEM: T1, EBV gp350 stably expressed on CHO cells (Epstein-Barr virus, UniProt P03200)
- T1 construct: stably co-transfected with full-length pCAGGS-gp350/220 and pCI-puro vector; expressed in transfected cells; host or cells: CHO cells
- T1 sequence (P03200 whole entry): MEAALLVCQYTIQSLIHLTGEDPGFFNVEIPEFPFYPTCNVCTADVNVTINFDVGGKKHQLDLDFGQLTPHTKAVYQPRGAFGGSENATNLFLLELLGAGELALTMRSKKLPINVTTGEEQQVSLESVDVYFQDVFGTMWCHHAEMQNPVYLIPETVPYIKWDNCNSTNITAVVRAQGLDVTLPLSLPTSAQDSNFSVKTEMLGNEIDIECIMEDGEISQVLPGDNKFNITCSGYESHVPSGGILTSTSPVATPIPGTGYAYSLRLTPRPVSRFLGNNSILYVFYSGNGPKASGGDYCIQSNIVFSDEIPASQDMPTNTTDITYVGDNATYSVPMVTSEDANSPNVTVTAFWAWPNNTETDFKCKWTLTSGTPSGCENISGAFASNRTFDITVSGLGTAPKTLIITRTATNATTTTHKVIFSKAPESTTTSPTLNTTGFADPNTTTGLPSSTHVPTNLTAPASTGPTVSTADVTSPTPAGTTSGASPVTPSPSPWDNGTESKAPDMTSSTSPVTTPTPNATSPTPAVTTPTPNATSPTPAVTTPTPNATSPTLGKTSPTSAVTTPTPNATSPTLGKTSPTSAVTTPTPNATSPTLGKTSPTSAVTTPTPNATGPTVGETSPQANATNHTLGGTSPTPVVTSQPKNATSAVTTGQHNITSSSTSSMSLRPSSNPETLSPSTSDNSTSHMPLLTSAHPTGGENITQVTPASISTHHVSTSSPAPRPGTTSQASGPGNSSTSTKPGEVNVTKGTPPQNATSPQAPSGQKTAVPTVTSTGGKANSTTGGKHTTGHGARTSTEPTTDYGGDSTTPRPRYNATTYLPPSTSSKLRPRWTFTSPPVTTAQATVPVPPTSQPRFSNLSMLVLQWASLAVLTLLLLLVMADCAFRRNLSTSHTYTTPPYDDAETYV
- TEST PROTOCOL: Epitope mapping by competitive cell binding assay with biotinylated mAbs
- TEST PARAMETERS: unlabeled mAb 500 μg/ml; biotinylated m72A1 1 μg/ml
PARAMETER MEASURED: % inhibition of biotinylated nAbs (biotinylated m72A1) (%)
// units = %; emit number, no label

// below: answered molecules
molecule="m72A1: EBV anti-gp350 neutralizing mouse antibody purified from HB168 hybridoma (ATCC); SEQ ID NO: 100 / 101 (antibody, V domains shown, heavy chain mAb 72A1; light chain mAb 72A1) VH: PELVKPGTSMKISCKASGSSFTDYTMNWMKQSHGKNLEWIGLINPYNGGTRYNQKFKGKATLTLDKSSSTAYMEVLSLTSEDSAVYYCAGGLRRVNWFAYWGQGTLVSVSAAKTTPPSVYPLAPGSAAQTNSMVTLG VL: QAVLTQESALTTSPGETVTLTCRSSTGAVTTSNYANWVQEKPDHLFTGLIGGTNNRVPGVPARFSGSLIGDKAALTITGAQTEDEAIYFCVLWHSNHWVFGGGTKLTVL" assay_result=91
molecule="HB22: murine anti-EBV gp350 mAb, IgG1 κ; SEQ ID NO: 130 / 131; non-nAb (antibody, V domains shown, heavy chain mAb HB22; light chain mAb HB22, murine anti-EBV gp350 mAb, IgG1 κ; non-nAb) VH: PGLVAPSQSLSITCTVSGFSLTNYGIHWVRQPPGKGLEWLVVIWSDGSTIYNSALKSRLSISKDNSKSQVFLKMNSLQTDDTAMYYCARNYYGNSYPAWFAYWGQGTLVTVSAAKTTPPSVYPLAPGSAAQTNSMVTLG VL: LSLPVSLGDQASISCRSSQSIVHSNGNTYLEWYLQKPGQSPKLLIYKVSNRFSGVPDRFSGSGSGTDFTLRISRVEAEDLGVYYCFQGSHVPWTFGGGTKLEIKRADAAPTV" assay_result=10
molecule="h72A1: humanized 72A1 IgG1; heavy and light chain SEQ ID NOs: 180 and 181 (antibody, V domains shown) VH: EVQLVESGGGLVQPGGSLRLSCAASGSSFTDYTMNWMRQSPGKGLEWIGLINPYNGGTRYADSVKGRATLSLDKSKNTAYLQMNSLRAEDTAIYYCAGGLRRVNWFAYWGQGTLVTVSS VL: DAQLTQSPILLSASVGDRVTITCRSSTGAVTTSNYANWVQERTNGSFRGLIGGTNNRVPGVPSRFSGSLSGDDATLTISSLQPEDEADYFCVLWHSNHWVFGAGTKVEIKR" assay_result=98

# context switch: different molecule, same % inhibition of biotinylated nAbs (biotinylated m72A1)
IN: Read the entry HB10: murine anti-EBV gp350 mAb, IgG1 κ; SEQ ID NO: 118 / 119; non-nAb (protein, heavy chain mAb HB10; light chain mAb HB10, murine anti-EBV gp350 mAb, IgG1 κ; non-nAb) chain 1: LSLPVSLGDQASISCRSSQSIVHSNGNTYLEWYLQKAGQSPKLLIYKVSNRFSGVPDRFGGSGSGTDFTLKISRVEAEDLGVYYCFQGSHVPYTFGGGTKLEIKRADAAPTV chain 2: SSLSASLGDRVTISCRASQDIGNYLNWYQQKPDGTVKLLIYYTSRLHSGVPSRFSGSGSGTDYSLTISNLEEEDIATYFCQQGNTLPPTFGGGTKLEIKRADAAPTV and write its reported % inhibition of biotinylated nAbs (biotinylated m72A1).
OUT: 12
